Collected polymerase ribozyme fitness (log ratio) values appear next to each entry.
B1: TPR t1 (parent)
chain: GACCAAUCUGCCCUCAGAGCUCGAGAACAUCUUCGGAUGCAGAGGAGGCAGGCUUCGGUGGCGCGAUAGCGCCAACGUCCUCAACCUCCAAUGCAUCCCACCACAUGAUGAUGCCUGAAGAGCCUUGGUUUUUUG

Variants of: B1
Test: polymerase ribozyme fitness, log enrichment relative to wild type (log ratio); higher = more active; in vitro selection for triplet polymerase activity
Assay metric: polymerase ribozyme fitness (log ratio)

Variant key: C3G C12G C62U
Measured result: -2.34
//
Variant key: U30C G44U A50G C88U
Measured result: -2.96
//
Variant key: A74G U109G
Measured result: -4.6
//
Variant key: C13A C88A
Measured result: -2.19
//
Variant key: A41U G42C C53A C85U
Measured result: -4.01
//
Variant key: C12A G51A
Measured result: -2.41
//
Variant key: G71A G120U
Measured result: 0.349
//
Variant key: G10U C94U C101A C104A
Measured result: -3.21
//
Variant key: C8A G51C C53A C88A C114A
Measured result: -5.74
//
Variant key: G61U C98A C99A
Measured result: -5.19
//
Variant key: C40U G44A G63A
Measured result: -1.6
//
Variant key: G1U
Measured result: 0.29
//
Variant key: G71A C124U
Measured result: 1.42
//
Variant key: A27G G51U G61A U92A
Measured result: -6.49
//
Variant key: A46G U54G
Measured result: 0.0807
